Kindly state CC50 for each of the entries shown.
Assay: in vitro
Settings: African green monkey

1. COc1c(CCNC(=O)c2cc3ccccc3cc2O)cccc1-c1ccc([N+](=O)[O-])cc1    ~900 µM

Exercise: Record request: CC50 value, item COC(=O)C(Cc1ccc(-c2ccc(F)c(Cl)c2)cc1)NC(=O)c1cc(-c2ccc(C(F)(F)F)cc2)ccc1O (centres unmarked)
Solution: ~600 µM

###

Test system: vaccinia virus expressing the green fluorescent protein (vvGFP)
Assay: microbe, parasite or virus in culture
Assay type: cell-based
Conditions: Orthopoxvirus vaccinia, BSC-40, 24 h
ENDPOINT NAME: IC50

1) COC(=O)C(Cc1ccc(-c2ccc(F)c(Cl)c2)cc1)NC(=O)c1cc(-c2ccc(C(F)(F)F)cc2)ccc1O (centres unmarked)    ~4.6 µM

Consider now this further compound.
Exercise: Record request: IC50 value, item "COc1c(CCNC(=O)c2cc3ccccc3cc2O)cccc1-c1ccc([N+](=O)[O-])cc1"
Solution: ~12 µM

Provenance of the data: patent US20070112523A1
